Origin of values: ChEMBL document CHEMBL2074533

biological target: OATP1B3 (Homo sapiens, UniProt Q9NPD5); test: TP_TRANSPORTER: transport in OATP1B3-expressing oocytes; assay type: functional, cell-based, Oocyte
Sequence (Q9NPD5 whole entry): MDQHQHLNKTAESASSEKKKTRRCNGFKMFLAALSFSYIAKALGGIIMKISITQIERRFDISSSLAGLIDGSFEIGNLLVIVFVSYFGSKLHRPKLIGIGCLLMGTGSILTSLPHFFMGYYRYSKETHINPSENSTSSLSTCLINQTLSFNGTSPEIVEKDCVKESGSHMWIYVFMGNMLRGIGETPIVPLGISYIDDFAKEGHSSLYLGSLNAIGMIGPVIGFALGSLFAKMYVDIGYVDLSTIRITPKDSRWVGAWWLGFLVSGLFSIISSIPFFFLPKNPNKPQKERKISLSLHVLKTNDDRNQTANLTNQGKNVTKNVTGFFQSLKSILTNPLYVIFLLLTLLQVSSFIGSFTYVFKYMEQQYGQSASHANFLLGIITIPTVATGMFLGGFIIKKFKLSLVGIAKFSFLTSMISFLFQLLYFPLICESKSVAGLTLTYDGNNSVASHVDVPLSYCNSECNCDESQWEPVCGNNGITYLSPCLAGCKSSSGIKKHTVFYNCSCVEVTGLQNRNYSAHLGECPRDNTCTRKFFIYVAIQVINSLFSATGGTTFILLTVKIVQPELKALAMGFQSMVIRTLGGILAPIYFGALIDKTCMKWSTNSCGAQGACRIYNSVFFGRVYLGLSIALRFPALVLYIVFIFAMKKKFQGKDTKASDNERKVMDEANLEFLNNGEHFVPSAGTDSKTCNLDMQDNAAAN
MEASURE: Km (µM)
Record the value in µM, omitting the unit from your answer.

Sure, the documented Km for CCCc1nc(C(C)(C)O)c(C(=O)O)n1Cc1ccc(-c2ccccc2-c2nnn[nH]2)cc1 is 71.8
